Each recorded value in this set is attributed to the Biogen ADME set (Fang et al. 2023).

Consider the following compounds and their measured MDR1-MDCK efflux ratio readings.
Enter a number only.

Cc1nc(CC2CCN(S(=O)(=O)c3cn(C)cn3)CC2)cc(NC2CCCC2)n1 | 37.4
CC(=O)Nc1ccccc1OCCOc1ccc(Cl)cc1 | 0.373
Cc1nnc(-c2ccc(N3CCC(Oc4cc(F)ccc4Cl)CC3)nn2)o1 | 0.65

GET /value?item= Cc1nn(C)c(C)c1NC(=O)CN1CCC2(CCCCC2)CC1 &field=MDR1-MDCK efflux ratio returns 1.6

GET /value?item= CC(c1nnc(-c2cccs2)o1)N1CCC(n2c(=O)[nH]c3ccccc32)CC1 (configuration not stated) &field=MDR1-MDCK efflux ratio returns 21.1

GET /value?item= CN1CCC[C@H]1C(=O)N[C@@H](CO)Cc1ccccc1 &field=MDR1-MDCK efflux ratio returns 2.77

GET /value?item= O=C(Nc1cccc2ncccc12)[C@H]1CCCN(S(=O)(=O)c2ccccc2)C1 &field=MDR1-MDCK efflux ratio returns 13

GET /value?item= Cc1cc2cc(C(=O)N(C)CCC(=O)O)oc2cc1C &field=MDR1-MDCK efflux ratio returns 1.72

====

Consider the following compounds and their measured intrinsic clearance, rat liver microsomes readings.
Give the value in mL/min/kg but do not write mL/min/kg after it.

COCC(=O)Nc1cc(C#N)cn1C(C)(C)C | 15.3
Cc1nn(C)c2ncc(C(=O)Nc3ccc4c(c3)CCO4)cc12 | 48.2
Cc1ncsc1CNc1nnc(-c2ccncc2)o1 | 61.5
Cc1ccc2c(C(=O)N(C)C)cc(-c3cnc(C(C)C)nc3)nc2c1C | 836

GET /value?item= O=C(c1ccccc1)N1CCN(C(=O)c2ccc(-c3ccccc3Cl)o2)CC1 &field=intrinsic clearance, rat liver microsomes returns 445

GET /value?item= O=C(CC1c2ccccc2CCc2ccccc21)NCCN1CCOCC1 &field=intrinsic clearance, rat liver microsomes returns 2020

GET /value?item= Brc1cc2c(cc1Cn1cncn1)OCCCO2 &field=intrinsic clearance, rat liver microsomes returns 228

GET /value?item= O=c1ccc(C2CC2)nn1CC1CN(CC2(O)CCCC2)C1 &field=intrinsic clearance, rat liver microsomes returns 84

GET /value?item= O=C(CC1CCNCC1)NCCc1ccccc1F &field=intrinsic clearance, rat liver microsomes returns 21.9

====

Dear colleague, classification is by intrinsic clearance, rat liver microsomes, with ranges listed here: bin A: < 80 mL/min/kg; bin B: ≥ 80 mL/min/kg and < 500 mL/min/kg; bin C: ≥ 500 mL/min/kg

Cc1ncsc1CCN1C(=O)NC2(CCCC2)C1=O | bin B
CN1CCC(O)(CNC(=O)C2CCCCCC2)CC1 | bin B
N#Cc1ccc2nc([C@H]3CCN(C4CCC4)C3)[nH]c2c1 | bin A
Cc1ccc2c(CC(=O)N(C)Cc3nnc4n3CCC4)coc2c1C | bin C
CC1(c2nnc(-c3ccc4c(c3)OCCO4)o2)CCOCC1 | bin B

-- ask Band assignment needed for Cc1cc(C(=O)Nc2cccc(-c3cnco3)c2)c2c(C)nn(C)c2n1 please.
-- reply bin A

-- ask Band assignment needed for Cc1ccc(CCNC(=O)c2ccncc2)o1 please.
-- reply bin A

-- ask Band assignment needed for CN1CCN(c2ccc3nc(-c4cc(C(C)(C)C)c(OCCCC(=O)NCCCN=[N+]=[N-])c(C(C)(C)C)c4)[nH]c3c2)CC1 please.
-- reply bin B

-- ask Band assignment needed for NC(=O)Cn1ccc(-c2ccccc2)n1 please.
-- reply bin A

-- ask Band assignment needed for O=C(Cc1csc(-c2ccccn2)n1)NC1CCCCCC1 please.
-- reply bin C

-- ask Band assignment needed for Cc1ccsc1C(=O)NCc1ccc2c(c1)OCCCO2 please.
-- reply bin C

-- ask Band assignment needed for O=C1CCC(=O)N1CCSc1ncc(-c2ccc(F)cc2)[nH]1 please.
-- reply bin C

-- ask Band assignment needed for CONC(=O)c1cn(-c2ccc(Br)cc2)cn1 please.
-- reply bin B

-- ask Band assignment needed for COc1ccc(CCNCc2ccc(-c3ccccc3)o2)cc1OC please.
-- reply bin C

-- ask Band assignment needed for CCCn1c(=O)n(Cc2ccc(C#N)cc2F)c2ccccc21 please.
-- reply bin C

====

Label key: YES means MDR1-MDCK efflux ratio under 0.7; NO means MDR1-MDCK efflux ratio of 0.7 or more.

Below are worked cases with known answers.
COc1ccc(-c2c(C)n[nH]c2C)cn1 | YES
Cc1ccc(OCC2(O)CCN(CC3(O)CCN(c4ccccc4C)CC3)CC2)cc1 | YES
Cc1ccc(C)c(OCC(=O)N2CCC(C(=O)Nc3ccccc3)CC2)c1 | NO
COc1ccc(-c2cnn3c(N)c(-c4ccccc4)cnc23)cc1OC | YES
COc1cc(OC)cc(-n2c(S)nnc2COc2cccc3ccccc23)c1 | NO
COc1ccc2c(c1)CN(C(=O)c1cc(C3CC3)[nH]n1)CC2 | NO
COC(=O)c1ccc(NS(=O)(=O)c2ccc3c(c2)n(C)c(=O)n3C)cc1 | NO
O=c1c2oc3ccccc3c2ncn1Cc1ccc(Cl)cc1 | YES
CC(C)CC(=O)N1CCC(Cc2cccc(-c3cncnc3)c2)(C(=O)NC(C)C)CC1 | NO

Here's the next entry for you.
-- ask A record lists Cc1cccc(NCCc2cc(F)cc3c2OCOC3)n1 . Is its MDR1-MDCK efflux ratio below 0.7?
-- reply YES

====

Consider the following compounds and their measured intrinsic clearance, human liver microsomes readings.
Give the value in mL/min/kg but do not write mL/min/kg after it.

CC(=O)NCC(=O)N1[C@@H]2CC[C@H]1c1ccc(Nc3ncc(C(F)(F)F)c(NC4CCC4)n3)cc12 | 20.8

GET /value?item= CCNc1ccnc(-c2cccc(C(=O)NCCCc3cnn(C)c3)c2)n1 &field=intrinsic clearance, human liver microsomes returns 26.1

GET /value?item= O=C(C1CCC1)N1CCC(c2ncc(-c3ccc(F)c(F)c3)[nH]2)CC1 &field=intrinsic clearance, human liver microsomes returns 43.2

GET /value?item= COC(=O)CC1=NN(c2ccc(OC)cc2)C(=O)/C1=C(/C)NCc1ccc(OC)cc1 &field=intrinsic clearance, human liver microsomes returns 272

GET /value?item= Cc1ccc(CNC/C=C/c2ccccc2)cn1 &field=intrinsic clearance, human liver microsomes returns 28.5

GET /value?item= Cc1ccc2nc3c(c(C(=O)NCc4cnn(C)c4)c2c1)CCCC3 &field=intrinsic clearance, human liver microsomes returns 36.9

====

# cutoff 30 mL/min/kg applies to intrinsic clearance, human liver microsomes; >= gives Y, < gives N

Below are worked cases with known answers.
N#Cc1cccc(-c2ccc(=O)n3c2[C@@H]2C[C@@H](CN(Cc4ccc(F)cc4)C2)C3)c1 | Y
CC(C)NC(=O)COc1cccc(-c2nc(Nc3ccc4[nH]ncc4c3)c3ccccc3n2)c1 | Y
Cc1cccc(C)c1OCCn1nnnc1C | N
CCS(=O)(=O)CC(=O)Nc1cc(C)ccc1C | N
Cn1ccc(CSc2n[nH]c(-c3cc(F)cc(F)c3)n2)n1 | N
CCCCC1=NC2(CCCC2)C(=O)N1Cc1ccc(-c2ccccc2-c2nn[nH]n2)cc1 | N
C=CCN(C)CCCCCCOc1ccc(C(=O)c2ccc(Br)cc2)c(F)c1 | Y
O=C(O)Cc1ccc(Oc2ccncc2)cc1 | N
O=C(c1sc(N2CCOCC2)nc1-c1ccccc1)N1CCCCC1 | Y
OCc1cnnn1-c1cncc(Cl)n1 | N

Here's the next entry for you.
-- ask hey, is intrinsic clearance, human liver microsomes for this one >= 30 mL/min/kg? N[C@@H]1CCCN(c2c(/C=C3\SC(=O)NC3=O)cccc2-c2ccccc2)C1
-- reply N

====

parameter: MDR1-MDCK efflux ratio
Enter a number only.

Completed entries (count: 5):
COCCc1nc(-c2cnc(C3CC3)nc2)n(Cc2ccc(F)cc2)n1 | 1.51
Cc1csc(N(C(=O)c2cc3c(C)nn(C)c3s2)C2CC2)n1 | 0.642
COCCc1n[nH]c(-c2ccc(N3CCN(C)CC3)cc2)n1 | 7.53
O=C(Nc1ccc2c(c1)N(CC(F)F)C(=O)CS2)C1CC=CC1 | 0.742
CCC(Nc1cnn(C)c1)c1ccc2c(c1)OCCO2 (stereo unspecified) | 0.835

GET /value?item= CNC(=O)c1sc2ncccc2c1[C@H]1CC[C@H](CNC(=O)CCc2ccccc2)CC1 &field=MDR1-MDCK efflux ratio returns 33.7

GET /value?item= Fc1ccc(-n2cc(/C=C/c3ccnnc3)nn2)cc1Cl &field=MDR1-MDCK efflux ratio returns 0.642

GET /value?item= CCCS(=O)(=O)NC1CCN(Cc2ccc(C)c(OC)c2)CC1 &field=MDR1-MDCK efflux ratio returns 1.43

GET /value?item= Cn1c(CNC(=O)Cc2cccc3ccccc23)nc2ccccc21 &field=MDR1-MDCK efflux ratio returns 2.33

GET /value?item= CNc1nc(-c2cc(OC)cc(OC)c2)ncc1F &field=MDR1-MDCK efflux ratio returns 0.408

GET /value?item= COc1cccc(C)c1C(=O)N(C)Cc1ncc[nH]1 &field=MDR1-MDCK efflux ratio returns 6.32

====

Label key: Satisfied means MDR1-MDCK efflux ratio under 2; Not satisfied means MDR1-MDCK efflux ratio of 2 or more.

NS(=O)(=O)N1CCN(Cc2c(F)cccc2N2CCCC2)CC1 | Satisfied
CC(=O)Nc1ncc(CN2CCCC[C@@H]2C)s1 | Satisfied
O=C(Nc1ccccn1)c1ccc2c(c1)C(=O)N(C1CCCCC1)C2=O | Satisfied
CCOC(=O)Nc1ccc2c(c1)N(C(=O)CN(CC)CC)c1ccccc1CC2 | Not satisfied
COc1ccc(CN2CCc3nc(-c4cccnc4)nc(O)c3C2)c(C)c1C | Not satisfied
N#Cc1ccc2[nH]c(O)c(-c3ccc(CN4CCOCC4)cn3)c2c1 | Not satisfied
CC(/C=C/C(=O)NO)=C\[C@@H](C)C(=O)c1ccc(N(C)C)cc1 | Not satisfied
CNc1nc(Nc2cnn([C@H]3CCN(C4COC4)C[C@@H]3F)c2Cl)ncc1C(F)(F)F | Satisfied

-- ask A record lists O=C(O)/C=C/c1ccc(Cn2ccnc2)cc1 . Is its MDR1-MDCK efflux ratio below 2?
-- reply Not satisfied

-- ask A record lists CCOc1ccc(S(=O)(=O)N(CC)CC(=O)Nc2ccc3c(c2)OCO3)cc1 . Is its MDR1-MDCK efflux ratio below 2?
-- reply Satisfied

-- ask A record lists COc1ccccc1-c1ccc(CC2(C(=O)NC3CC3)CCOCC2)cc1 . Is its MDR1-MDCK efflux ratio below 2?
-- reply Satisfied
